Every entry's value here was drawn from the supplement of paper PMC8007513.

Entries and their measured growth yield follow.
# System: Trichoderma virens ATCC 9645
# experiment notes: growth yield (OD600) with compound + IPBC relative to untreated control; higher = less growth inhibition
# experimental parameters: compound concentration: 100 uM; IPBC concentration: 200 ng/ml; 72 h
Structures can show the parent of a compound that is named as a salt. The campaign covered roughly 1,300 compounds. About 130 (10%) showed an effect of 50% or more. The sample as a whole holds a higher share of strong results than the screen did.
// return numeric value only (unit: %, not printed)

The following compounds have reported results that may help.
compound	unit string	growth yield
CCC1(C)CC(=O)NC1=O (stereo not drawn) [Ethosuximide] + CCCCNC(=O)OCC#CI [3-iodo-2-propynyl butylcarbamate (IPBC)]	%	97.8
CN1CCOC(c2ccccc2)c2ccccc2C1 (stereo not drawn) [Nefopam hydrochloride] + CCCCNC(=O)OCC#CI [3-iodo-2-propynyl butylcarbamate (IPBC)]	%	93.1

Now look at this one.
Prompt: Look at this compound and give its reported growth yield. CN(C)C(=N)NC(=N)N [Metformin hydrochloride] + CCCCNC(=O)OCC#CI [3-iodo-2-propynyl butylcarbamate (IPBC)]
Response: 88
